Experiment summary: Apparent permeability from basolateral to apical side in MDCK cells at 50 uM over 2 hrs by isocratic reverse phase HPLC method
Assay type: ADME, cell-based, Canis lupus familiaris
Details: dog
Experimental endpoint: Papp B→A at 2 h, 50 µM (×10⁻⁶ cm/s)

Use these answered entries as a reference point.
CCOP(=O)(OCC)N1C/C(=C\c2ccc(OC)c(OC)c2)C(=O)/C(=C/c2ccc(OC)c(OC)c2)C1 = 27.7
O=C1/C(=C/c2ccccc2F)CNC/C1=C\c1ccccc1F = 0.36
COc1ccc(/C=C2\CNC/C(=C\c3ccc(OC)c(OC)c3)C2=O)cc1OC = 8.7

(P) O=C1/C(=C/c2cccc(O)c2)CNC/C1=C\c1cccc(O)c1
(Q) O=C(/C=C/c1ccccc1)c1ccccc1
Between P and Q , which one shows the smaller Papp B→A at 2 h, 50 µM number? When you have decided, please share the label of that item.
Q

(1) COc1ccccc1/C=C1\CNC/C(=C\c2ccccc2OC)C1=O
(2) CCOC(=O)c1ccc(/C=C2\CNC/C(=C\c3ccc(C(=O)OCC)cc3)C2=O)cc1
Choose between 1 and 2 : whose measured Papp B→A at 2 h, 50 µM value is numerically larger? Please indicate the selected item by its label.
1
(1: 13.9 ×10⁻⁶ cm/s, 2: 0.99 ×10⁻⁶ cm/s)

(P) COc1cccc(/C=C2\CNC/C(=C\c3cccc(OC)c3OC)C2=O)c1OC
(Q) CN(C)c1ccc(/C=C/C(=O)/C=C/c2ccc(N(C)C)cc2)cc1
Returns: the label, P or Q , whose recorded Papp B→A at 2 h, 50 µM is the lower number. Bench note: the answer is the label of the chosen record.
P
(P: 6.28 ×10⁻⁶ cm/s, Q: 15.9 ×10⁻⁶ cm/s)

###

Tested on: MDCK
Experiment summary: Permeability ratio, ratio of permeability from apical to basolateral side over basolateral to apical side in MDCK cells at 50 uM over 2 hrs by isocratic reverse phase HPLC method
Format: ADME, cell-based, Canis lupus familiaris
Details: dog
Experimental endpoint: Ratio

Record excerpt, results attached:
COc1ccc(/C=C2\CNC/C(=C\c3ccc(OC)c(OC)c3)C2=O)cc1OC = 2.55
CCOP(=O)(OCC)N1C/C(=C\c2ccc(OC)c(OC)c2)C(=O)/C(=C/c2ccc(OC)c(OC)c2)C1 = 2.25
CCOC(=O)c1ccc(/C=C2\CNC/C(=C\c3ccc(C(=O)OCC)cc3)C2=O)cc1 = 2.73

(I) COc1cccc(/C=C2\CNC/C(=C\c3cccc(OC)c3OC)C2=O)c1OC
(II) O=C1/C(=C/c2ccccc2F)CNC/C1=C\c1ccccc1F
Given I and II , report the one with the higher recorded Ratio. When you have decided, please share the label of that item.
II

###

Experiment summary: Apparent permeability from apical to basolateral side in human Caco2 cells at 50 uM over 2 hrs by isocratic reverse phase HPLC method
Format: ADME, cell-based
Details: Caco-2
Experimental endpoint: Papp A→B at 2 h, 50 µM (×10⁻⁶ cm/s)

(I) COc1ccccc1/C=C1\CNC/C(=C\c2ccccc2OC)C1=O
(II) O=C(/C=C/c1ccccc1)c1ccccc1
(III) CN(C)c1ccc(/C=C/C(=O)/C=C/c2ccc(N(C)C)cc2)cc1
Reorder the records above by Papp A→B at 2 h, 50 µM so that values decrease. When ranking, write the labels in the order the request describes.
I, III, II

###

Experiment summary: Apparent permeability from apical to basolateral side in human Caco2 cells at 50 uM over 2 hrs by isocratic reverse phase HPLC method
Assay type: ADME, cell-based
Details: Caco-2
Experimental endpoint: Papp A→B at 2 h, 50 µM (nm/s)

CCOC(=O)c1ccc(/C=C2\CNC/C(=C\c3ccc(C(=O)OCC)cc3)C2=O)cc1 = 28.2
O=C1/C(=C/c2ccccc2F)CNC/C1=C\c1ccccc1F = 35.3
CCOP(=O)(OCC)N1C/C(=C\c2cc(OC)c(OC)c(OC)c2)C(=O)/C(=C/c2cc(OC)c(OC)c(OC)c2)C1 = 285
